Listing: melting point of selected molecules

Recorded results for 8 molecules are shown here.
[[record]]
molecule = "Cc1ccc(C(C)C)cc1OCc1cn(CCCCCCCCCCCCOc2ccc3ccc(=O)oc3c2)nn1 [Compound 27]"
test_result = "80 to 81 °C"

[[record]]
molecule = "C=CCc1ccc(OCc2cn(CCCCCCCCCCOc3ccc4ccc(=O)oc4c3)nn2)c(OC)c1 [Compound 34]"
test_result = "48 to 49 °C"

[[record]]
molecule = "CC1CCC(C(C)C)C(OCc2cn(CCCCCCCCCCCCOc3ccc4ccc(=O)oc4c3)nn2)C1 (stereo not drawn) [Compound 43]"
test_result = "59 to 60 °C"

[[record]]
molecule = "C=CCc1ccc(OCCCCCCCCCOc2ccc3ccc(=O)oc3c2)c(OC)c1 [Compound 65]"
test_result = "56 to 57 °C"

[[record]]
molecule = "Cc1ccc(C(C)C)cc1OCc1cn(CCCCCCCCCCOc2ccc3ccc(=O)oc3c2)nn1 [Compound 26]"
test_result = "73 to 74 °C"

[[record]]
molecule = "Cc1ccc(C(C)C)cc1OCc1cn(CCCCCCCCCOc2ccc3ccc(=O)oc3c2)nn1 [Compound 25]"
test_result = "69 to 70 °C"

[[record]]
molecule = "CC1CCC(C(C)C)C(OCc2cn(CCOc3ccc4ccc(=O)oc4c3)nn2)C1 (stereo not drawn) [Compound 36]"
test_result = "122 to 123 °C"

[[record]]
molecule = "Cc1ccc(C(C)C)c(OCc2cn(CCCCCCCCCCCCOc3ccc4ccc(=O)oc4c3)nn2)c1 [Compound 19]"
test_result = "68 to 69 °C"


Now look at this one.
According to the records, this molecule Cc1ccc(C(C)C)cc1OCCCCOc1ccc2ccc(=O)oc2c1 [Compound 54] displays melting point of 74 to 75 °C

----------
MEASURE: melting point

Recorded results for 2 molecules are shown here.
[[record]]
molecule = "CC1CCC(C(C)C)C(OCc2cn(CCCOc3ccc4ccc(=O)oc4c3)nn2)C1 (centres unmarked)"
test_result = "78 to 79 °C"

[[record]]
molecule = "Cc1ccc(C(C)C)cc1OCc1cn(CCCCCCCOc2ccc3ccc(=O)oc3c2)nn1"
test_result = "83 to 84 °C"


According to the records, this molecule Cc1ccc(C(C)C)c(OCCOc2ccc3ccc(=O)oc3c2)c1 displays melting point of 181 to 182 °C

According to the records, this molecule C=CCc1ccc(OCCCCCCCOc2ccc3ccc(=O)oc3c2)c(OC)c1 displays melting point of 62 to 63 °C

According to the records, this molecule C=CCc1ccc(OCc2cn(CCCCCCCOc3ccc4ccc(=O)oc4c3)nn2)c(OC)c1 displays melting point of 101 to 102 °C

According to the records, this molecule Cc1ccc(C(C)C)cc1OCCCCCCCCCCCCOc1ccc2ccc(=O)oc2c1 displays melting point of 58 to 59 °C

According to the records, this molecule C=CCc1ccc(OCc2cn(CCCOc3ccc4ccc(=O)oc4c3)nn2)c(OC)c1 displays melting point of 88 to 89 °C

According to the records, this molecule C=CCc1ccc(OCc2cn(CCCCCCCCCCCCOc3ccc4ccc(=O)oc4c3)nn2)c(OC)c1 displays melting point of 72 to 74 °C

----------
Listing: log10 of Ki of selected molecules
target: UniProt:Q16790
Please be aware that the numbers have been log10-transformed from Ki in nM.

Recorded results for 4 molecules are shown here.
[[record]]
molecule = "Cc1ccc(C(C)C)c(OCc2cn(CCCCCCCCCCCCOc3ccc4ccc(=O)oc4c3)nn2)c1 [Compound 19]"
test_result = 1.34

[[record]]
molecule = "Cc1ccc(C(C)C)c(OCCCCCCCCCOc2ccc3ccc(=O)oc3c2)c1 [Compound 49]"
test_result = 2.09

[[record]]
molecule = "Cc1ccc(C(C)C)cc1OCc1cn(CCCCCCCOc2ccc3ccc(=O)oc3c2)nn1 [Compound 24]"
test_result = 1.51

[[record]]
molecule = "CC1CCC(C(C)C)C(OCCCCOc2ccc3ccc(=O)oc3c2)C1 (stereo not shown) [Compound 70]"
test_result = 2.15


Summary: Cc1ccc(C(C)C)cc1OCc1cn(CCCCCCOc2ccc3ccc(=O)oc3c2)nn1 [Compound 23] , UniProt:Q16790, log10 of Ki = 0.28

Summary: Cc1ccc(C(C)C)c(OCCCCCCOc2ccc3ccc(=O)oc3c2)c1 [Compound 47] , UniProt:Q16790, log10 of Ki = 2.07

Summary: CC1CCC(C(C)C)C(OCc2cn(CCCCCCCCCCCCOc3ccc4ccc(=O)oc4c3)nn2)C1 (stereo not shown) [Compound 43] , UniProt:Q16790, log10 of Ki = 0.40
